# System Name: orexin-2 receptor (Homo sapiens)
# Sequence (O43614 1-444): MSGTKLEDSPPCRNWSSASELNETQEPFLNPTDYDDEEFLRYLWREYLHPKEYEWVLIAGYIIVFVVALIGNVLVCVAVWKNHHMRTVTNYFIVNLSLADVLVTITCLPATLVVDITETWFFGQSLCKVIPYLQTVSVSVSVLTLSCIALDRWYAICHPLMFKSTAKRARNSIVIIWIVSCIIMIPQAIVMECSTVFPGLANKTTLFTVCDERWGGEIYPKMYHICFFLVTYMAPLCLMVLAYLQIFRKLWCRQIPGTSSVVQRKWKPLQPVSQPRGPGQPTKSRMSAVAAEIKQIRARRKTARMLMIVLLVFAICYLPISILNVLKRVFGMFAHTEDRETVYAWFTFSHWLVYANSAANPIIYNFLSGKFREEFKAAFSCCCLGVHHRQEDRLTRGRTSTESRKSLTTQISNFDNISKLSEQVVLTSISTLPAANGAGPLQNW
# Procedure Text: Orexin radioligand binding assay (125I-orexin A, adherent recombinant cells)
# Assay Conditions: 125I-orexin A displacement, recombinant CHO-K1 or HEK-293 cells expressing the orexin receptor
pKi: −log10 of the molar value.
Tick YES if pKi is 6 or greater. Tick NO if pKi is less than 6.

Below are worked cases with known answers.
[
  {
    "Compound": "CC1(C)OC[C@H](NC(=O)Nc2ccccc2Cl)[C@H](c2ccccc2)O1 [Example 30]",
    "Category": "YES"
  },
  {
    "Compound": "CC1(C)OC[C@H](NC(=O)Nc2ccccc2F)[C@H](c2ccccc2)O1 [Example 31]",
    "Category": "NO"
  },
  {
    "Compound": "CC1(C)OC[C@H](NC(=O)Nc2ccccc2-c2cccs2)[C@H](c2ccccc2)O1 [Example 13]",
    "Category": "YES"
  }
]

I'd appreciate it if you could say whether CC1(C)OC[C@H](NC(=O)Nc2ccccc2Oc2ccccc2)[C@H](c2ccccc2)O1 [Example 21] has pKi at least equal to 6.
YES

* * *

# System Name: orexin-2 receptor (Homo sapiens, UniProt O43614)
# Procedure Text: Orexin radioligand binding assay (125I-orexin A, adherent recombinant cells)
# Assay Conditions: 125I-orexin A displacement, recombinant CHO-K1 or HEK-293 cells expressing the orexin receptor
# if measured Ki < 300 nM: T  # else: F

Below are worked cases with known answers.
[
  {
    "Compound": "Cc1ccc(NC(=O)N[C@H]2COC(C)(C)O[C@H]2c2ccccc2)c(C)c1 [Example 29]",
    "Category": "T"
  },
  {
    "Compound": "CC1(C)OC[C@H](NC(=O)Nc2ccccc2-c2cccc(Cl)c2)[C@H](c2ccccc2)O1 [Example 14]",
    "Category": "T"
  },
  {
    "Compound": "CC1(C)OC[C@H](NC(=O)Nc2ccc(Br)cc2Cl)[C@H](c2ccccc2)O1 [Example 1]",
    "Category": "T"
  },
  {
    "Compound": "CC1(C)OC[C@H](NC(=O)Nc2c(Cl)cccc2Cl)[C@H](c2ccccc2)O1 [Example 43]",
    "Category": "F"
  },
  {
    "Compound": "CC1(C)OC[C@H](NC(=O)Nc2cc(C(F)(F)F)ccc2Cl)[C@H](c2ccccc2)O1 [Example 17]",
    "Category": "T"
  },
  {
    "Compound": "CC1(C)OC[C@H](/N=C(\\S)Nc2ccc(Cl)cc2Cl)[C@H](c2ccccc2)O1 [Example 22]",
    "Category": "T"
  },
  {
    "Compound": "CC1(C)OC[C@H](NC(=O)Nc2cccc(Br)c2)[C@H](c2ccccc2)O1 [Example 44]",
    "Category": "F"
  },
  {
    "Compound": "CC1(C)OC[C@H](NC(=O)Nc2ccccc2C(F)(F)F)[C@H](c2ccccc2)O1 [Example 8]",
    "Category": "T"
  },
  {
    "Compound": "CC1(C)OC[C@H](NC(=O)Nc2ccccc2I)[C@H](c2ccccc2)O1 [Example 6]",
    "Category": "T"
  },
  {
    "Compound": "COC(=O)c1ccccc1NC(=O)N[C@H]1COC(C)(C)O[C@H]1c1ccccc1 [Example 40]",
    "Category": "F"
  }
]

Please check: Ki for CC1(C)OC[C@H](NC(=O)Nc2ccccc2[N+](=O)[O-])[C@H](c2ccccc2)O1 [Example 33] , strictly under 300 nM or not?
F

What would you report for Cc1cc(Br)ccc1NC(=O)N[C@H]1COC(C)(C)O[C@H]1c1ccccc1 [Example 2] ?
T

What would you report for CC1(C)OC[C@H](NC(=O)Cc2ccccc2Br)[C@H](c2ccccc2)O1 [Example 34] ?
F

What would you report for CC1(C)OC[C@H](/N=C(\S)Nc2ccccc2Br)[C@H](c2ccccc2)O1 [Example 24] ?
F

What would you report for CC1(C)OC[C@H](NC(=O)Nc2ccccc2C#N)[C@H](c2ccccc2)O1 [Example 20] ?
T

What would you report for CC1(C)OC[C@H](NC(=O)Nc2ccc(Br)cc2)[C@H](c2ccccc2)O1 [Example 36] ?
F

What would you report for CC1(C)OC[C@H](NC(=O)Nc2ccccc2-c2ccsc2)[C@H](c2ccccc2)O1 [Example 15] ?
T
